Catalogue of compounds with associated pIC50
Sequence of the target: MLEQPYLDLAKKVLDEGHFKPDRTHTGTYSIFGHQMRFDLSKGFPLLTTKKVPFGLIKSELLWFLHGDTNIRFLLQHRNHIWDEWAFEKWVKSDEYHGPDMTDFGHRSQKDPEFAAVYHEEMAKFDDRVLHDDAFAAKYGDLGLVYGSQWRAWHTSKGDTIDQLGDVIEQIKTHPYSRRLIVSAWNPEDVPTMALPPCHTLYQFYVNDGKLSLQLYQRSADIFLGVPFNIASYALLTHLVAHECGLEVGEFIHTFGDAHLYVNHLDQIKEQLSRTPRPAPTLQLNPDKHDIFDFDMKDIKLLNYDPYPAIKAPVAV
pIC50: −log10 of the molar value.
MEASURED_PROPERTY: pIC50

1) C#CN(Cc1ccc2nc(N)nc(O)c2c1)c1ccc(C(=O)NC(CCC(=O)NC(CCC(=O)NC(CCC(=O)O)C(=O)O)C(=O)O)C(=O)O)cc1 (stereo not given) : 7.85
2) Nc1nc(O)c2cc(CN(CC3CC3)c3ccc(C(=O)N[C@@H](CCC(=O)O)C(=O)O)cc3)ccc2n1 : 4.92
3) CC#CCN(Cc1ccc2nc(N)nc(O)c2c1)c1ccc(C(=O)N[C@@H](CCC(=O)O)C(=O)O)cc1 : 5.36
4) C#CN(Cc1ccc2nc(N)nc(O)c2c1)c1ccc(C(=O)NC(CCC(=O)O)C(=O)NC(CCC(=O)NC(CCC(=O)NC(CCC(=O)O)C(=O)O)C(=O)O)C(=O)O)cc1 (stereo not given) : 7.85
5) C#CN(Cc1ccc2nc(N)nc(O)c2c1)c1ccc(C(=O)NC(CCC(=O)O)C(=O)NC(CCC(=O)NC(CCC(=O)NC(CCC(=O)NC(CCC(=O)O)C(=O)O)C(=O)O)C(=O)O)C(=O)O)cc1 (stereo not given) : 7.89

###

pIC50: −log10 of the molar value.
The reader will find pIC50 measurements below, all made with UniProtKB P00381.
Sequence (P00381 whole entry): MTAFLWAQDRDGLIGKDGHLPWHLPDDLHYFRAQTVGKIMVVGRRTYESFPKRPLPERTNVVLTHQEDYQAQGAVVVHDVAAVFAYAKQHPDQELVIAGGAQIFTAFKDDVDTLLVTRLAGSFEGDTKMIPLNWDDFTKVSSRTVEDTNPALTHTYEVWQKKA
MEASURED_PROPERTY: pIC50

1. C#CN(Cc1ccc2nc(N)nc(O)c2c1)c1ccc(C(=O)NC(CCC(=O)NC(CCC(=O)NC(CCC(=O)O)C(=O)O)C(=O)O)C(=O)O)cc1 (stereo not given) : 5.28
2. C#CN(Cc1ccc2nc(N)nc(O)c2c1)c1ccc(C(=O)NC(CCC(=O)O)C(=O)NC(CCC(=O)NC(CCC(=O)NC(CCC(=O)NC(CCC(=O)O)C(=O)O)C(=O)O)C(=O)O)C(=O)O)cc1 (stereo not given) : 5.54
3. CC#CCN(Cc1ccc2nc(N)nc(O)c2c1)c1ccc(C(=O)N[C@@H](CCC(=O)O)C(=O)O)cc1 : 3.60
4. Nc1nc(O)c2cc(CN(CC3CC3)c3ccc(C(=O)N[C@@H](CCC(=O)O)C(=O)O)cc3)ccc2n1 : 5.64
5. C#CN(Cc1ccc2nc(N)nc(O)c2c1)c1ccc(C(=O)NC(CCC(=O)O)C(=O)NC(CCC(=O)NC(CCC(=O)NC(CCC(=O)O)C(=O)O)C(=O)O)C(=O)O)cc1 (stereo not given) : 5.43

###

tested on: L1210; assay: Inhibition of thymidylate synthesis in permeabilised cells; type: functional, cell-based; conditions: Mus musculus
MEASURED_PROPERTY: IC50 (µM)

1) C#CN(Cc1ccc2nc(N)nc(O)c2c1)c1ccc(C(=O)NC(CCC(=O)O)C(=O)NC(CCC(=O)NC(CCC(=O)NC(CCC(=O)O)C(=O)O)C(=O)O)C(=O)O)cc1 (stereo not drawn) : 0.0014
2) CC#CCN(Cc1ccc2nc(N)nc(O)c2c1)c1ccc(C(=O)N[C@@H](CCC(=O)O)C(=O)O)cc1 : 14
3) C#CN(Cc1ccc2nc(N)nc(O)c2c1)c1ccc(C(=O)NC(CCC(=O)O)C(=O)NC(CCC(=O)NC(CCC(=O)NC(CCC(=O)NC(CCC(=O)O)C(=O)O)C(=O)O)C(=O)O)C(=O)O)cc1 (stereo not drawn) : 0.002
4) C#CN(Cc1ccc2nc(N)nc(O)c2c1)c1ccc(C(=O)NC(CCC(=O)NC(CCC(=O)NC(CCC(=O)O)C(=O)O)C(=O)O)C(=O)O)cc1 (stereo not drawn) : 0.002
5) Nc1nc(O)c2cc(CN(CC3CC3)c3ccc(C(=O)N[C@@H](CCC(=O)O)C(=O)O)cc3)ccc2n1 : 82
6) C#CN(Cc1ccc2nc(N)nc(O)c2c1)c1ccc(C(=O)NC(CCC(=O)O)C(=O)NC(CCC(=O)O)C(=O)O)cc1 (stereo not drawn) : 0.006
7) CN(Cc1cnc2nc(N)nc(N)c2n1)c1ccc(C(=O)N[C@@H](CCC(=O)O)C(=O)O)cc1 [METHOTREXATE] : 60
8) C#CN(Cc1ccc2nc(N)nc(O)c2c1)c1ccc(C(=O)NC(CCC=O)C(=O)O)cc1 (stereo not drawn) : 0.03
